B1: VH:VL chains; a variant is named by its letters at X, in order (parent)
chain 1: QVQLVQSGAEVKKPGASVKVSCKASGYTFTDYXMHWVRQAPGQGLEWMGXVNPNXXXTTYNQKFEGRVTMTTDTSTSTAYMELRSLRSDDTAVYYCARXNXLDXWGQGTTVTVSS
chain 2: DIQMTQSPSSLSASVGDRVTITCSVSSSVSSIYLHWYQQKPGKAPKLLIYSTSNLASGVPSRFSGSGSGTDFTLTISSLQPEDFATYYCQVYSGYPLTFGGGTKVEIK

# Variants of: B1
# assayOverview: yeast display scFab, FACS + sequencing
experimentalReadout: non-specific binding call

DTKAADWV | no binding
DAGGASSA | no binding
VEGGGAAA | no binding
YRAGDSWD | no binding
VAATGVSD | binds
VGGGAAGV | no binding
YRARGSWS | binds
YRGRGFGF | binds

// sample SRGRGAVD , its non-specific binding call was binds

// non-specific binding call value for YRGAASAV : binds

Entry STATADWV , non-specific binding call reported as no binding

Value of non-specific binding call reported for the variant ATGEADAS is no binding

Given item ARTKGSGY , the value recorded as its non-specific binding call is binds
